Experiment: Octanol-phosphate buffer distribution coefficient, log D of the compound at pH 7.4 by shake flask method
Format: physicochemical
Quick rule for you: logD under 0.8 gets Condition met, anything else gets Condition not met.

These recorded examples may help you get a feel for the data.
compound | category
CNC(=O)c1nc(N2CC[C@@H](NC(=O)c3[nH]c(C)c(Cl)c3Cl)[C@@H](OC)C2)sc1C(=O)O | Condition not met
CO[C@H]1CN(c2nc(C(=O)NCC3(C)OCCO3)c(C(=O)O)s2)CC[C@H]1NC(=O)c1[nH]c(C)c(Cl)c1Cl | Condition not met
CO[C@H]1CN(c2nc(-c3ncnn3C)c(C(=O)O)s2)CC[C@H]1NC(=O)c1[nH]c(C)c(Cl)c1Cl | Condition met
CO[C@H]1CN(c2nc(C(N)=O)c(C(=O)O)s2)CC[C@H]1NC(=O)c1[nH]c(C)c(Cl)c1Cl | Condition not met
CCO[C@H]1CN(c2ncc(C(=O)O)s2)CC[C@H]1NC(=O)c1[nH]c(C)c(Cl)c1Cl (racemic) | Condition met

query: In the record for `CO[C@H]1CN(c2nc(-c3ccncn3)c(C(=O)O)s2)CC[C@H]1NC(=O)c1[nH]c(C)c(Cl)c1Cl` , is logD less than 0.8?
result: Condition not met

query: In the record for Cc1[nH]c(C(=O)N[C@@H]2CCN(c3ncc(C(=O)O)s3)C[C@@H]2Cl)c(Cl)c1Cl (racemic) , is logD less than 0.8?
result: Condition met

query: In the record for `CO[C@H]1CN(c2nc(-c3cncc(NCCN4CCN(C)CC4)n3)c(C(=O)O)s2)CC[C@H]1NC(=O)c1[nH]c(C)c(Cl)c1Cl` , is logD less than 0.8?
result: Condition not met

query: In the record for `CO[C@H]1CN(c2nc(-c3nccs3)c(C(=O)O)s2)CC[C@H]1NC(=O)c1[nH]c(C)c(Cl)c1Cl` , is logD less than 0.8?
result: Condition not met

query: In the record for `CO[C@H]1CN(c2nc(-c3nc(C)no3)c(C(=O)O)s2)CC[C@H]1NC(=O)c1[nH]c(C)c(Cl)c1Cl` , is logD less than 0.8?
result: Condition met

query: In the record for `CO[C@H]1CN(c2nc(C(=O)NC3COC(C)(C)OC3)c(C(=O)O)s2)CC[C@H]1NC(=O)c1[nH]c(C)c(Cl)c1Cl` , is logD less than 0.8?
result: Condition not met

query: In the record for `CO[C@H]1CN(c2nc(-c3cn(C)cn3)c(C(=O)O)s2)CC[C@H]1NC(=O)c1[nH]c(C)c(Cl)c1Cl` , is logD less than 0.8?
result: Condition not met

Taken from ChEMBL document CHEMBL3352173.
